- Tested on: SF-295 CNS
- Assay Notes: NCI tumour cell line growth inhibition, 48 h; in the data active means GI50 below about 0.43 µM; inactive means the rest
Classes used: active, inactive

- Compound: "O=c1c(-c2ccccc2)coc2cc(OC/C(=N/O)c3ccc(F)cc3)ccc12"
  Measured On: "SF-295 CNS"
  Class Assignment: "inactive"
- Compound: "N.N.N.N.N.O=S(=O)([O-])C(F)(F)F.O=S(=O)([O-])C(F)(F)F.[Os+8]"
  Measured On: "SF-295 CNS"
  Class Assignment: "inactive"
- Compound: "C=C1CC[C@@H]2[C@](C)(COC(C)=O)[C@H](OC(C)=O)CC[C@@]2(C)[C@@H]1CC(Nc1ccc(S(=O)(=O)Nc2nccs2)cc1)C1=CCOC1=O (stereo partly specified)"
  Measured On: "SF-295 CNS"
  Class Assignment: "inactive"
- Compound: "Nc1cc2cccc[n+]2c2cccc(Cl)c12"
  Measured On: "SF-295 CNS"
  Class Assignment: "inactive"
- Compound: "COc1cc(C2CC(=O)Nc3c2cc(Br)c2ccccc32)cc(Br)c1OC (stereo unspecified)"
  Measured On: "SF-295 CNS"
  Class Assignment: "inactive"
- Compound: "Nc1n[nH]c2ccc([C@@H]3Nc4cc5[nH]ncc5cc4[C@H]4C5CCC(C5)[C@@H]34)cc12 (stereo partly specified)"
  Measured On: "SF-295 CNS"
  Class Assignment: "active"

* * *

- Test system: MDA-MB-231 breast
- Assay Notes: NCI tumour cell line growth inhibition, 48 h

- Compound: "CC1C2CC(C/C2=N/O)C1(C)C (stereo not drawn)"
  Measured On: "MDA-MB-231 breast"
  TGI: "> 100 µM"
- Compound: "O=C1c2ccccc2C(=O)N1C1(C(=O)NC2(C(=O)O)CCCC2)CCCC1"
  Measured On: "MDA-MB-231 breast"
  TGI: "> 100 µM"
- Compound: "Clc1nc(Nc2nc3ccccc3[nH]2)nc(Cl)c1Cc1ccccc1"
  Measured On: "MDA-MB-231 breast"
  TGI: "> 100 µM"

* * *

- Tested on: BT-549 breast
- Assay Notes: NCI tumour cell line growth inhibition, 48 h
Measurement Name: TGI

- Compound: "Cc1nn(C(=O)c2ccncc2)c2c1C(c1cccc([N+](=O)[O-])c1)SC(N)=N2 (stereo not given)"
  Measurement Name: "TGI"
  Reported Result: "> 10 µM"
- Compound: "CCOC(=O)c1c(N2CCOCC2)[nH]c(=O)c(C(c2cccs2)c2c(O)c(C(=O)OCC)c(N3CCOCC3)[nH]c2=O)c1O"
  Measurement Name: "TGI"
  Reported Result: "> 100 µM"
- Compound: "CCN1C(=O)N(CC)C2C1NN=c1s/c(=C\\c3ccc[nH]3)c(=O)n12 (stereo not given)"
  Measurement Name: "TGI"
  Reported Result: "> 100 µM"
- Compound: "COc1cc([C@H]2Oc3c(OC)cc(CCCO)cc3[C@@H]2CO)ccc1O"
  Measurement Name: "TGI"
  Reported Result: "> 100 µM"
- Compound: "Oc1nc(N/N=C/c2ccccc2)[nH]c1/C=C1\\C=Nc2ccccc21"
  Measurement Name: "TGI"
  Reported Result: "> 100 µM"
- Compound: "COc1cc(C(c2cccc3ccccc23)N2C(=O)CCC2C(=O)NCc2ccccc2)cc(OC)c1OC (stereo not given)"
  Measurement Name: "TGI"
  Reported Result: "> 100 µM"
- Compound: "COc1ccc(Oc2ccccc2NC(=O)CNC(=O)c2cccc3ccccc23)cc1"
  Measurement Name: "TGI"
  Reported Result: "> 25 µM"
- Compound: "NC(=O)c1cccc(-c2cc(C(N)=O)ccc2Cl)c1"
  Measurement Name: "TGI"
  Reported Result: "> 100 µM"
- Compound: "O=C1c2ccccc2C(=O)N1C1(C(=O)NC2(C(=O)O)CCCC2)CCCC1"
  Measurement Name: "TGI"
  Reported Result: "> 100 µM"
- Compound: "N#CC(C#N)=C(N)/C(C#N)=C/c1ccc2[nH]ccc2c1"
  Measurement Name: "TGI"
  Reported Result: "> 100 µM"
